# protocol-text: clinical
# details: human, in vivo, 1 mg/kg
# Method: The pharmacokinetics of HDP-CDV (oral solution) were investigated in a dose-escalation study in healthy volunteers (Study HDP-CDV-102) in which single doses of up to 2 mg/kg and multiple doses (3 doses, each separated by 6 days) of up to 1 mg/kg were administered.

compound	half-life (min)
CCCCCCCCCCCCCCCCOCCCOP(=O)(O)COC(CO)Cn1ccc(N)nc1=O (stereo not shown)	1620

---

# Tested on: HHV-6(B)
# protocol-text: In vitro antiviral activity in cell culture, HHV-6(B)
# Assay type: cell-based, human herpesvirus 6
# details: Human betaherpesvirus 6, B-cell

compound	measured-on	units	EC50
Nc1ccn(C[C@@H](CO)OCP(=O)(O)O)c(=O)n1 [Cidofovir, cidofovir, reference compound]	HHV-6(B)	µM	5.4
Nc1nc(O)c2ncn(COC(CO)CO)c2n1	HHV-6(B)	µM	5.9
CCCCCCCCCCCCCCCCOCCCOP(=O)(O)COC(CO)Cn1ccc(N)nc1=O (stereo not drawn)	HHV-6(B)	µM	0.007
